tested on: MS2 coat protein; experiment: apparent KD of MS2 coat protein, switch OFF state (with FMN for OFF switches, without FMN for ON switches); designed switch direction (-1 OFF switch, 1 ON switch): -1; higher = weaker reporter binding; settings: FMN input: 0 or 200 uM; Eterna round: R93 (includes R88 designs)
apparent KD of MS2 coat protein listing for selected sequences.
Quick reminder: number only, in nM, skip the unit.

See these solved cases before continuing.
>  <sequence-content>
AAGAAUUCAGGAUAUACAAGGAAGAAAGAAAAGAAAAGAAAACAUGAGGAUCACCCAUGUAGAAGGGAAUAGAA [EteRNA is fun!]

>  <measurement-unit>
nM

>  <apparent KD of MS2 coat protein>
26.6

$$$$
>  <sequence-content>
AACAGUACAGGAUAUACAUGAGGAUCACCCAUGUGAGAAUUAAGUGGCGUACCACAAAGUAGAAGGGUACUGAA [Mat - Exclusion 3 - JL mod - D6]

>  <measurement-unit>
nM

>  <apparent KD of MS2 coat protein>
97.3

$$$$
>  <sequence-content>
AACAGUACAGGAUAUACAUGAGGAUCACCCAUGUGAAAAGAAAGUGGCGUACCACAAAGUAGAAGGGUACUGAA [Mat - Exclusion 3 - JL mod - D29]

>  <measurement-unit>
nM

>  <apparent KD of MS2 coat protein>
135

$$$$
>  <sequence-content>
AAAACGGUAGGAUAUACGAUUUGGUACUAGACCGAGGAACCACAUGAGGAUCACCCAUGUAGAAGGACCAAAAA [EX2 Malc#19]

>  <measurement-unit>
nM

>  <apparent KD of MS2 coat protein>
14

$$$$
>  <sequence-content>
AGCUAGUCAGGAUAUACGAACAUGUCGAGAGACGUGAAGGGACAUGAGGAUCACCCAUGUAGAAGGGACUAGCA [Mat - Exclusion 2 - JL mod - D2]

>  <measurement-unit>
nM

>  <apparent KD of MS2 coat protein>
170

$$$$

Query: apparent KD of MS2 coat protein; subject: AAAAAACAUGAGGAUCACCCAUGUCAGGAUAUCUGUAAAAAUUAAAAAAAUAAAAUACAGAGAAGGGACAUAAA [Ex1: 606]
100

What does the data say about its apparent KD of MS2 coat protein? Entry: AUAAAGUGAGGAUAUACAUGAGGAUCACCCAUGUAAGAAAUAAAAUAAAUAAAGGGAAGUAGAAGGCACAAAUA [Denovo 1]
41.3

What value of apparent KD of MS2 coat protein has been reported for the following sequence? AAAACACAUGAGGAUCACCCAUGUGAGGAUAUGCGAGUGAAAAUAAAAAUAAAACAUAGCAGAAGGCACAAGGA [Amethyst 80]
45

What value of measured apparent KD of MS2 coat protein is listed for AAGAAGUGAGGAUAUCGAAGACAGACGAAAAGUCUGUCAAACGAGAAGGCACAUGAGGAUCACCCAUGUGGGAA [What have we learned so far? 64% 3] ?
169

Tell me the measured apparent KD of MS2 coat protein of AGCUAGUGAGGAUAUACGAACAAGUAAAAGGACUGUAAGGGACAUGAGGAUCACCCAUGUAGAAGGCACUAGCA [Diamond 60] , please.
92.7

---

Entries and their apparent KD of K4 kissing-loop reporter values follow.
tested on: K4 kissing-loop RNA reporter; assay: apparent KD of K4 kissing-loop reporter; higher = weaker reporter binding; details: Eterna round: R107; input ligand: arginine 13.2 mM;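 further: bound reporter read as fluorescence of individual clusters on recovered sequencing chips by microscopy, with normalized cluster intensities fitted with a binding model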
Write it as a number; the unit nM goes unstated.

Use the examples below as a reference point.
>  <sequence-content>
UCCACGCUUAGAGGAUAUCGGAUUAGAGUGAUGUUCUAAAGAAGCCCAGUGAUGUUGGAUGGUAUACGAGAAGGCUGAGGCGUGG [Same State FMN B GF 3]

>  <apparent KD of K4 kissing-loop reporter / nM>
629

$$$$
>  <sequence-content>
UAACUCUUGCAGUGAUGUUGCAAGUAAGCUCAGGAUAUCAGGAAACUGAGAAGGGAGUAUCCUGAGCUUCUGCAAGAGCUCAGAA [KL-SSFMN-A5]

>  <apparent KD of K4 kissing-loop reporter / nM>
83.2

$$$$

Note: attention shifts to another entry.
Endpoint output: apparent KD of K4 kissing-loop reporter of GCGGGCCCGGGAGGAUAUGAGUCGAGUGAUGUUCGGCGGUCCAUGCCGUUGCGGCGUUAAGCCCUUUUAGAAGGCCCGGGCCCGC [#2 Exclusion - FMN B Attempt #2 (HarryS)] . Value?
137
